TARGET_DESC: HIV-1 RT (Human immunodeficiency virus type 1 group M subtype B, UniProt P03366)
READOUT_NAME: IC50 (nM)

[[record]]
smiles_string = "COC(=O)COc1ccc(OC)cc1CCNC(=S)Nc1ccc(Br)cn1"
target_desc = "HIV-1 RT (Human immunodeficiency virus type 1 group M subtype B, UniProt P03366)"
uom = "nM"
assay_value = 100

